Values compiled from patent US11357779B2.

test: Plasma concentration versus time of Compound I and metabolite Compound III in patients dosed QD or BID with Form B of Compound II plus fulvestrant; format: in vivo, human; conditions: human, plasma, oral, 400 mg, 400 mg QD of Form B, Day 1, […], Mean; read-out: Compound I Concentration
Outcome Measure: concentration at 24 h (ng/mL)
The response must be a number in ng/mL with no trailing unit.

Task item: Please report the recorded concentration at 24 h for CC(C)N1CCN(c2ccc(Nc3ncc4cc5n(c4n3)C3(CCCCC3)CNC5=O)nc2)CC1 .
Reply: 3.27

----------
test: Plasma concentration versus time of Compound I and metabolite Compound III in patients dosed QD or BID with Form B of Compound II plus fulvestrant; format: in vivo, human; settings: human, plasma, oral, 300 mg, 300 mg QD of Form B, Day 29, 0.0 h, Mean; read-out: Compound I Concentration
Outcome Measure: concentration at 0 h

Task item: Consider the compound CC(C)N1CCN(c2ccc(Nc3ncc4cc5n(c4n3)C3(CCCCC3)CNC5=O)nc2)CC1 and give its measured concentration at 0 h.
Reply: 13.9 ng/mL

----------
experiment: Plasma concentration versus time of Compound I and metabolite Compound III in patients dosed QD or BID with Form B of Compound II plus fulvestrant; format: in vivo, human; conditions: human, plasma, oral, 200 mg, Cohort 8, 200 mg BID of Form B, Day 29, 1.0 h; read-out: Compound I Concentration, Mean
Outcome Measure: concentration at 1 h (ng/mL)
Express your answer in ng/mL, writing the number without its unit.

Task item: Need concentration at 1 h of CC(C)N1CCN(c2ccc(Nc3ncc4cc5n(c4n3)C3(CCCCC3)CNC5=O)nc2)CC1 , thanks.
Reply: 9.23

----------
assay: Plasma concentration versus time of Compound I and metabolite Compound III in patients dosed QD or BID with Form B of Compound II plus fulvestrant; assay type: in vivo, human; details: human, plasma, oral, 650 mg, Cohort 5, 650 mg QD of Form B, Day 29, 0.0 h; read-out: Compound III Concentration, Median
Outcome Measure: concentration at 0 h (ng/mL)
Express the result in ng/mL but write the number alone.

Task item: Requested read-out: concentration at 0 h. Entry: O=C1NCC2(CCCCC2)n2c1cc1cnc(Nc3ccc(N4CCNCC4)cn3)nc12
Reply: 2.06

----------
assay: Noncompartmental pharmacokinetic parameters (Cmax, Tmax, AUC, Racc) in QD and BID cohorts of Form B; type: in vivo, human; details: human, plasma, oral, 650 mg, Compound III; 650 mg QD of Form B; Cohort 5; Day 1; read-out: Cmax (Median)
Outcome Measure: Cmax (ng/mL)
Give a bare numeral; the unit ng/mL is implied.

Task item: Can you look up the measured Cmax of O=C1NCC2(CCCCC2)n2c1cc1cnc(Nc3ccc(N4CCNCC4)cn3)nc12 for me?
Reply: 10.4

----------
experiment: Steady-state AUC0-24,ss, (AUC0-24,ss)/dose, half-life and time to steady state: Compound I versus palbociclib, ribociclib, abemaciclib; type: in vivo, human; settings: 650 mg QD of Form B of Compound II, Day 29
Outcome Measure: (Mean AUC0-24,ss)/Dose (mg) (ng·h/mL/mg)
Give the value in ng·h/mL/mg but do not write ng·h/mL/mg after it.

Task item: Report (Mean AUC0-24,ss)/Dose (mg) for CC(C)N1CCN(c2ccc(Nc3ncc4cc5n(c4n3)C3(CCCCC3)CNC5=O)nc2)CC1 please.
Reply: 1.47
